- system name: Lysine-specific demethylase 4A (Homo sapiens) (UniProt O75164)
- Sequence (O75164 whole entry, looked up, the tested form may be a part): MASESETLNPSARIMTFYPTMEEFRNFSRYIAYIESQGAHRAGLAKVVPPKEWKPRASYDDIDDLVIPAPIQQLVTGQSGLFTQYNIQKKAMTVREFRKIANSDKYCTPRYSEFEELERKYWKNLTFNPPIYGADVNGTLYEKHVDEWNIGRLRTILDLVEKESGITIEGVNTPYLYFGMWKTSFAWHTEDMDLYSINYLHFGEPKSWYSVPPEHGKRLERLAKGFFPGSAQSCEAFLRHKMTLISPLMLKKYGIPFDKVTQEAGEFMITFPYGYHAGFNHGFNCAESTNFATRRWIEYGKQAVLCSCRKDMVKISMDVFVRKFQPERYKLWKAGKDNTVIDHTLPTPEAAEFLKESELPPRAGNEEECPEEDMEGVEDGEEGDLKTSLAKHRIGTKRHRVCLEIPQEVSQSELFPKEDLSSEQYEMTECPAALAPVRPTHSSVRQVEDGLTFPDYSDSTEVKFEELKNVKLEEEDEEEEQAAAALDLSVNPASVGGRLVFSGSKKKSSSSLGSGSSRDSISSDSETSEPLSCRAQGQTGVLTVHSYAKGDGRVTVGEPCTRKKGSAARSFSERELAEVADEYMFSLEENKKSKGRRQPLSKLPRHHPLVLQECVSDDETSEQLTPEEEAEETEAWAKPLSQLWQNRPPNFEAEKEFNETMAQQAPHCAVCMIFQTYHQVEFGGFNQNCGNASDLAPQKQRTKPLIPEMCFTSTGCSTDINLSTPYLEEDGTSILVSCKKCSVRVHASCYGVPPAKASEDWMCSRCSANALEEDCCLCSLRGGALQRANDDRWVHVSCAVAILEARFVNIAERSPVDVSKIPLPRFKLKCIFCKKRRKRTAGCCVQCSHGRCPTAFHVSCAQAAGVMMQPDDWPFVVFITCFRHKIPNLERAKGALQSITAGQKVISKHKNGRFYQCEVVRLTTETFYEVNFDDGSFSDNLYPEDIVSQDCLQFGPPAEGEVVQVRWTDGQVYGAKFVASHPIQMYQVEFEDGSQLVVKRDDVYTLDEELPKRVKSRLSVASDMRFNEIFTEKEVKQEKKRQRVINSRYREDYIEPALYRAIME
- assay explanation: qHTS Assay for Inhibitors of JMJD2A-Tudor Domain; note: % is set by controls: 0 for no effect and ±100 for the full control effect; nearly all actives have a fitted effect of over 50% in size
- measurement context: AlphaScreen JMJD2A-Tudor / H3K4me3 peptide binding; series mostly up to 114 µM
In all, about 390,000 compounds went through this assay and about 17,000 (4.4%) were called active. Not shown: some 8% with an inconclusive outcome. Calls come from the whole dose curve; as a rule, active = well fitted inhibition curve with a large enough effect; inconclusive = small, poorly fitted or top-dose-only effect; inactive = no such curve, though single readings can be large or run the other way. The sample as a whole holds a higher share of actives than the screen did.
Thanks in advance; please answer with one of these: yes (1) = active, no (0) = inactive

Worked set:
CCN(C(=O)COC(=O)c1sccc1C)c1c(N)n(Cc2ccccc2)c(=O)[nH]c1=O = no (0)
COc1cccc(NC(=O)Cn2c(=O)cc(C)c3c(C)nn(-c4cccc(F)c4)c32)c1 = no (0)
COc1ccc(/C=C/C(=O)NC(=S)N2CCCC(C(N)=O)C2)cc1 (stereo unspecified) = no (0)
Cc1nc2nc(SCC(=O)NC3CCC(C)CC3)nn2c(C)c1Cc1ccccc1Cl (stereo unspecified) = no (0)

Input line: I would be grateful if you could indicate the recorded call for "O=C(COC(=O)CSc1ccccc1)Nc1ccc(F)cc1F" .
Output line: no (0)

Input line: # outcome recorded in this test, key = "CC(C)c1ccc(NS(=O)(=O)c2ccc3[nH]cc(C(=O)NC4CCCC4)c(=O)c3c2)cc1"
Output line: no (0)
